test: Octanol-water partition coefficient, log D of the compound at pH 7.4; format: physicochemical
quantity.measured: logD

1: CCN(CCNC(=O)c1cnc2cc(I)ccc2n1)CCOCCOCCOCC[18F]
2: CCN(CCNC(=O)c1cnc2cc(I)ccc2n1)CCOCCOCCOCCOCCOCCOCCOCC[18F]
Challenge: Look at 1 and 2 . Which one has the lower recorded logD number? Choose, then provide that item's label.
Response given: 2
(2: 0.95, 1: 1.52)

----------
experiment: Stability of the compound in tumor of C57BL/6J mouse harboring mouse B16-Bl6 cells assessed as unchanged drug level at 18 MBq, iv after 2 hrs; type: ADME, organism-based, Neoplasm; conditions: read-out: Stability
quantity.measured: remaining at 2 h

Challenge: Sample "CCN(CCNC(=O)c1cnc2cc(I)ccc2n1)CCOCCOCCOCC[18F]" — what was its remaining at 2 h?
Response given: > 99%

----------
test: Ratio of drug level in tumor to blood in C57BL/6J mouse harboring mouse B16-Bl6 cells at 9 to 12 MBq, iv after 3 hrs by PET analysis; type: ADME, organism-based
quantity.measured: Kp at 3 h

1: CCN(CCNC(=O)c1cnc2cc(I)ccc2n1)CCOCCOCCOCC[18F]
2: CCN(CCNC(=O)c1cnc2cc(I)ccc2n1)CCOCCOCCOCCOCCOCCOCCOCC[18F]
Challenge: Choose between 1 and 2 : whose measured Kp at 3 h value is numerically larger? Choose, then provide that item's label.
Response given: 1

----------
test: Ratio of drug level in tumor to muscle in C57BL/6J mouse harboring mouse B16-Bl6 cells at 8 to 12 MBq, iv after 1 hr by PET analysis; type: ADME, organism-based; conditions: in vivo
quantity.measured: Ratio

These recorded examples may help you get a feel for the data.
| compound | Ratio |
| --- | --- |
| CCN(CCNC(=O)c1cnc2cc(I)ccc2n1)CCOCCOCCOCC[18F] | 11.04 |
| CCN(CC[18F])CCNC(=O)c1cnc2cc(I)ccc2n1 | 1.95 |

a: CCN(CCC[18F])CCNC(=O)c1cnc2cc(I)ccc2n1
b: CCN(CCNC(=O)c1cnc2cc(I)ccc2n1)CCOCCOCCOCCOCCOCCOCCOCC[18F]
Challenge: Look at a and b . Which one has the lower recorded Ratio number? Choose, then provide that item's label.
Response given: b
(b: 6.62, a: 11.86)

I: CCN(C/C=C/C[18F])CCNC(=O)c1cnc2cc(I)ccc2n1
II: CCN(CC#CC[18F])CCNC(=O)c1cnc2cc(I)ccc2n1
Challenge: Choose between I and II : whose measured Ratio value is numerically larger? Choose, then provide that item's label.
Response given: I
(I: 8.27, II: 5.07)

----------
assay: Ratio of drug level in tumor to blood in C57BL/6J mouse harboring mouse B16-Bl6 cells at 9 to 12 MBq, iv after 1 hr by PET analysis; type: ADME, organism-based
quantity.measured: Kp at 1 h

| compound | Kp at 1 h |
| --- | --- |
| CCN(CCNC(=O)c1cnc2cc(I)ccc2n1)CCOCCOCCOCC[18F] | 10.2 |
| CCN(CCNC(=O)c1cnc2cc(I)ccc2n1)CCOCCOCCOCCOCCOCCOCCOCC[18F] | 8.29 |

----------
test: Ratio of drug level in tumor to bone in C57BL/6J mouse harboring mouse B16-Bl6 cells at 8 to 12 MBq, iv after 1 hr by PET analysis; format: ADME, organism-based; settings: in vivo
quantity.measured: Ratio

| compound | quantity.measured | observed.value |
| --- | --- | --- |
| CCN(CC#CC[18F])CCNC(=O)c1cnc2cc(I)ccc2n1 | Ratio | 1.46 |
| CCN(C/C=C/C[18F])CCNC(=O)c1cnc2cc(I)ccc2n1 | Ratio | 1.99 |
| CCN(CCNC(=O)c1cnc2cc(I)ccc2n1)CCOCCOCCOCC[18F] | Ratio | 7.65 |
| CCN(CC[18F])CCNC(=O)c1cnc2cc(I)ccc2n1 | Ratio | 1.31 |

1: CCN(CCNC(=O)c1cnc2cc(I)ccc2n1)CCOCCOCCOCCOCCOCCOCCOCC[18F]
2: CCN(CCC[18F])CCNC(=O)c1cnc2cc(I)ccc2n1
Challenge: Choose between 1 and 2 : whose measured Ratio value is numerically larger? Choose, then provide that item's label.
Response given: 1
(1: 2.67, 2: 1.5)
